Assignment: determine reported polymerase ribozyme fitness (log ratio) for the given variants.
B1: TPR t1 (parent)
chain: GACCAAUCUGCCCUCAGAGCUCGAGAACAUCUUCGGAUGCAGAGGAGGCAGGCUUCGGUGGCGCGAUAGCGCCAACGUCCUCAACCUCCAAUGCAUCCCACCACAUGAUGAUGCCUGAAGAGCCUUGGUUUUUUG

Variants of: B1
Experiment: polymerase ribozyme fitness, log enrichment relative to wild type (log ratio); higher = more active; in vitro selection for triplet polymerase activity
Numbers only.

Example variants with recorded polymerase ribozyme fitness (log ratio):
[[record]]
mutation_label = "U9C G19U C70U"
value_reported = -3.94

[[record]]
mutation_label = "A18U G60A C72U G122A U130G"
value_reported = -3.74

[[record]]
mutation_label = "G61C C79U G117A G128A"
value_reported = -4.76

[[record]]
mutation_label = "C12A G51A A91G A119G G120A"
value_reported = -2.39

[[record]]
mutation_label = "C72U C99U A119U"
value_reported = -3.8

[[record]]
mutation_label = "A74U G93U G117C"
value_reported = -5.37

[[record]]
mutation_label = "G51A A66U C104G A105U A121G"
value_reported = -7.62

[[record]]
mutation_label = "G42A G69U"
value_reported = -0.125


Answer for every listed entry: what is its polymerase ribozyme fitness (log ratio)? The entries follow.
1. A121C G122A
2. U7C C34G G69C G120A
3. U7G C49U C56U U78C C94U A111C
4. C49G A119G C123G
5. A100U G113A
6. C49U C89U A105U
7. G23C U30C G42U G69A U78G A105C C115G
8. A46C G48U G113A

1.31
-6.41
-0.959
1.72
-1.88
-4.2
-7.04
-3
